Reference source for all entries: ChEMBL document CHEMBL6109036

# Tested on: Helicobacter pylori
# assayRemarks: Anti-bacterial activity against Helicobacter pylori measured after 72 hrs incubation by modified broth dilution method
# Format: functional

{"chemicalString": "Cc1ncc([N+](=O)[O-])n1CCO", "inequalitySign": "=", "MIC50 (µg/mL)": 2}
{"chemicalString": "CC[C@H]1OC(=O)[C@H](C)[C@@H](O[C@H]2C[C@@](C)(OC)[C@@H](O)[C@H](C)O2)[C@H](C)[C@@H](O[C@@H]2O[C@H](C)C[C@H](N(C)C)[C@H]2O)[C@](C)(OC)C[C@@H](C)C(=O)[C@H](C)[C@@H](O)[C@]1(C)O", "inequalitySign": "=", "MIC50 (µg/mL)": 0.064}
{"chemicalString": "Cc1cc(O)c(C(C)C)cc1/N=N/c1ccc([N+](=O)[O-])cc1", "inequalitySign": "=", "MIC50 (µg/mL)": 2}
{"chemicalString": "C=CCc1cc(/N=N/c2cccc3ccccc23)c(O)c(OC)c1", "inequalitySign": ">", "MIC50 (µg/mL)": 128}
{"chemicalString": "C=CCc1cc(/N=N/c2ccc([N+](=O)[O-])cc2)c(O)c(OC)c1", "inequalitySign": "=", "MIC50 (µg/mL)": 64}
{"chemicalString": "Cc1cc(O)c(C(C)C)cc1/N=N/c1ccccc1Cl", "inequalitySign": "=", "MIC50 (µg/mL)": 4}
{"chemicalString": "COc1ccc(/N=N/c2cc(C)c(O)c(/N=N/c3ccc(OC)cc3)c2C(C)C)cc1", "inequalitySign": ">", "MIC50 (µg/mL)": 128}
{"chemicalString": "Cc1ccc(C(C)C)c(O)c1", "inequalitySign": "=", "MIC50 (µg/mL)": 64}
{"chemicalString": "COc1cc(C=O)cc(/N=N/c2cccc([N+](=O)[O-])c2)c1O", "inequalitySign": "=", "MIC50 (µg/mL)": 8}
{"chemicalString": "COc1ccc(/N=N/c2cc(C(C)C)c(OC)cc2C)cc1", "inequalitySign": "=", "MIC50 (µg/mL)": 128}
{"chemicalString": "CC1(C)S[C@@H]2[C@H](NC(=O)[C@H](N)c3ccc(O)cc3)C(=O)N2[C@H]1C(=O)O", "inequalitySign": "=", "MIC50 (µg/mL)": 0.016}
{"chemicalString": "COc1cc(C=O)cc(/N=N/c2ccc(Br)cc2)c1O", "inequalitySign": "=", "MIC50 (µg/mL)": 16}
